// provenance: ChEMBL document CHEMBL1681651

System: MDA-MB-231
experiment summary: Growth inhibition of human MDA-MB-231 cells assessed as cell growth at 10 uM after 48 hrs by SRB assay
Assay type: functional
condition label: MDA-MB-231, 48 h, read-out: Activity
So I've got a bunch of compounds here, and I need their growth at 10 µM values.
Reply with the number, then its unit.

// query Checklist item: growth at 10 µM tested on MDA-MB-231, entry CNC(=O)OC[C@H]1O[C@@H](n2cnc3c(NC(=O)Nc4ccccc4)ncnc32)[C@H](O[Si](C)(C)C(C)(C)C)[C@@H]1O[Si](C)(C)C(C)(C)C , value?
// result 110%

// query Checklist item: growth at 10 µM tested on MDA-MB-231, entry CNC(=O)NC[C@H]1O[C@@H](n2cnc3c(NC(=O)Nc4ccccc4)ncnc32)[C@H](O[Si](C)(C)C(C)(C)C)[C@@H]1O[Si](C)(C)C(C)(C)C , value?
// result 106%

// query Checklist item: growth at 10 µM tested on MDA-MB-231, entry CCOC(=O)C[C@H]1[C@@H](O[Si](C)(C)C(C)(C)C)[C@H](n2cnc3c(NC(=O)Nc4ccccc4)ncnc32)O[C@@H]1CNC(=O)NC , value?
// result 94%

// query Checklist item: growth at 10 µM tested on MDA-MB-231, entry CNC(=O)NC[C@H]1O[C@@H](n2cnc3c(NC(=O)Nc4ccccc4)ncnc32)[C@H](O[Si](C)(C)C(C)(C)C)[C@@H]1CC(=O)N(C)OC , value?
// result 94%

* * *

Test system: SF-268
experiment summary: Growth inhibition of human SF268 cells assessed as cell growth at 10 uM after 48 hrs by SRB assay
Format: functional
condition label: SF-268, 48 h, read-out: Activity
assay metric: growth at 10 µM (%)
Quick note: give the figure in %, leave out the unit.

// query GET /values?readout=growth at 10 µM&item= CCOC(=O)C[C@H]1[C@@H](O[Si](C)(C)C(C)(C)C)[C@H](n2cnc3c(NC(=O)Nc4ccccc4)ncnc32)O[C@@H]1CNC(=O)NC
// result 93

// query GET /values?readout=growth at 10 µM&item= CNC(=O)OC[C@H]1O[C@@H](n2cnc3c(NC(=O)Nc4ccccc4)ncnc32)[C@H](O[Si](C)(C)C(C)(C)C)[C@@H]1O[Si](C)(C)C(C)(C)C
// result 85.2

// query GET /values?readout=growth at 10 µM&item= CNC(=O)NC[C@H]1O[C@@H](n2cnc3c(NC(=O)Nc4ccccc4)ncnc32)[C@H](O[Si](C)(C)C(C)(C)C)[C@@H]1O[Si](C)(C)C(C)(C)C
// result 102

// query GET /values?readout=growth at 10 µM&item= CNC(=O)NC[C@H]1O[C@@H](n2cnc3c(NC(=O)Nc4ccccc4)ncnc32)[C@H](O[Si](C)(C)C(C)(C)C)[C@@H]1CC(=O)N(C)OC
// result 91

* * *

Test system: UO-31
experiment summary: Growth inhibition of human UO31 cells assessed as cell growth at 10 uM after 48 hrs by SRB assay
Format: functional
condition label: UO-31, 48 h, read-out: Activity
So I've got a bunch of compounds here, and I need their growth at 10 µM values.
Reply with the number, then its unit.

// query Checklist item: growth at 10 µM tested on UO-31, entry CCOC(=O)C[C@H]1[C@@H](O[Si](C)(C)C(C)(C)C)[C@H](n2cnc3c(NC(=O)Nc4ccccc4)ncnc32)O[C@@H]1CNC(=O)NC , value?
// result 82%

// query Checklist item: growth at 10 µM tested on UO-31, entry CNC(=O)NC[C@H]1O[C@@H](n2cnc3c(NC(=O)Nc4ccccc4)ncnc32)[C@H](O[Si](C)(C)C(C)(C)C)[C@@H]1CC(=O)N(C)OC , value?
// result 82%

// query Checklist item: growth at 10 µM tested on UO-31, entry CNC(=O)NC[C@H]1O[C@@H](n2cnc3c(NC(=O)Nc4ccccc4)ncnc32)[C@H](O[Si](C)(C)C(C)(C)C)[C@@H]1O[Si](C)(C)C(C)(C)C , value?
// result 84%

// query Checklist item: growth at 10 µM tested on UO-31, entry CNC(=O)OC[C@H]1O[C@@H](n2cnc3c(NC(=O)Nc4ccccc4)ncnc32)[C@H](O[Si](C)(C)C(C)(C)C)[C@@H]1O[Si](C)(C)C(C)(C)C , value?
// result 106%
